Listing of entries alongside the reported EC50.
- System: HEK-293T
- experimentNotes: Cytotoxicity against HEK293T cells
- Assay type: cell-based
- conditionSummary: Homo sapiens
endpointLabel: EC50

[[record]]
moleculesmiles = "Clc1ccc2c(c1)/c(=N/c1ccc(-c3ccccc3)cc1)ccn2CCCN1CCCCC1"
testtarget = "HEK-293T"
measvalue = "21.8 µM"

[[record]]
moleculesmiles = "c1ccc(-c2ccc(/N=c3\\ccn(CCCN4CCCCC4)c4cc(-c5cnc6ccccc6c5)ccc34)cc2)cc1"
testtarget = "HEK-293T"
measvalue = "7.68 µM"

[[record]]
moleculesmiles = "FC(F)(F)c1ccc2/c(=N/c3ccc(-c4ccccc4)cc3)ccn(CCN3CCCC3)c2c1"
testtarget = "HEK-293T"
measvalue = "> 100 µM"

[[record]]
moleculesmiles = "Clc1ccc2/c(=N/c3ccc(-c4ccccc4)cc3)ccn(CCCN3CCCCC3)c2c1"
testtarget = "HEK-293T"
measvalue = "41.8 µM"

[[record]]
moleculesmiles = "Clc1ccc2/c(=N/c3ccc(Br)cc3)ccn(CCCN3CCCCC3)c2c1"
testtarget = "HEK-293T"
measvalue = "> 100 µM"

[[record]]
moleculesmiles = "CCN(CC)CCCCn1cc/c(=N\\c2ccc(-c3ccccc3)cc2)c2ccc(C(F)(F)F)cc21"
testtarget = "HEK-293T"
measvalue = "> 100 µM"

[[record]]
moleculesmiles = "Clc1ccc2/c(=N/c3ccccc3)ccn(CCCN3CCCCC3)c2c1"
testtarget = "HEK-293T"
measvalue = "> 100 µM"

[[record]]
moleculesmiles = "Clc1ccc2/c(=N/c3ccc(-c4ccccc4)cc3)ccn(CCN3CCCC3)c2c1"
testtarget = "HEK-293T"
measvalue = "> 100 µM"

[[record]]
moleculesmiles = "CCN(CC)CCCn1cc/c(=N\\c2ccc(-c3ccccc3)cc2)c2ccc(C(F)(F)F)cc21"
testtarget = "HEK-293T"
measvalue = "> 100 µM"


* * *

Listing of entries alongside the reported MIC.
- experimentNotes: Inhibition of hemozoin-like crystal formation after 5 days
- Type: functional
- conditionSummary: 120 h
endpointLabel: MIC (µM)

[[record]]
molecule = "Fc1ccc(-c2ccc3/c(=N/c4ccc(-c5ccccc5)cc4)ccn(CCCN4CCCCC4)c3c2)cc1"
measvalue = 500

[[record]]
molecule = "FC(F)(F)c1ccc2c(c1)/c(=N/c1ccc(-c3ccccc3)cc1)ccn2CCCN1CCCCC1"
measvalue = 1000

[[record]]
molecule = "CCN(CC)CCCC(C)Nc1ccnc2cc(Cl)ccc12 (stereo not given)"
measvalue = 125

[[record]]
molecule = "Clc1ccc2/c(=N/c3ccc(Oc4ccccc4)cc3)ccn(CCCN3CCCCC3)c2c1"
measvalue = 500

[[record]]
molecule = "Clc1ccc2c(c1)/c(=N/c1ccc(-c3ccccc3)cc1)ccn2CCCN1CCCCC1"
measvalue = 1000


* * *

Listing of entries alongside the reported pEC50.
- System: HEK-293T
- experimentNotes: Cytotoxicity against HEK293T cells
- Format: cell-based
- conditionSummary: Homo sapiens
pEC50: −log10 of the molar value.
endpointLabel: pEC50

[[record]]
moleculesmiles = "FC(F)(F)c1ccc2/c(=N/c3ccc(-c4ccccc4)cc3)ccn(CCCN3CCCCC3)c2c1"
testtarget = "HEK-293T"
readoutqualifier = "="
measvalue = 4.25

[[record]]
moleculesmiles = "CCN(CC)CCn1cc/c(=N\\c2ccc(-c3ccccc3)cc2)c2ccc(C(F)(F)F)cc21"
testtarget = "HEK-293T"
readoutqualifier = "="
measvalue = 4.41

[[record]]
moleculesmiles = "Fc1ccc(-c2ccc3/c(=N/c4ccccc4)ccn(CCCN4CCCCC4)c3c2)cc1"
testtarget = "HEK-293T"
readoutqualifier = "<"
measvalue = 4.00

[[record]]
moleculesmiles = "CCN(CC)CCCCn1cc/c(=N\\c2ccc(-c3ccccc3)cc2)c2ccc(Cl)cc21"
testtarget = "HEK-293T"
readoutqualifier = "<"
measvalue = 4.00

[[record]]
moleculesmiles = "Clc1ccc2/c(=N/c3ccc(Oc4ccccc4)cc3)ccn(CCCN3CCCCC3)c2c1"
testtarget = "HEK-293T"
readoutqualifier = "="
measvalue = 4.51

